- system: canine TRPM8 (Canis lupus familiaris, UniProt Q1A7N1)
- Construct: expressed in transfected cells
- Sequence (Q1A7N1 1-1104): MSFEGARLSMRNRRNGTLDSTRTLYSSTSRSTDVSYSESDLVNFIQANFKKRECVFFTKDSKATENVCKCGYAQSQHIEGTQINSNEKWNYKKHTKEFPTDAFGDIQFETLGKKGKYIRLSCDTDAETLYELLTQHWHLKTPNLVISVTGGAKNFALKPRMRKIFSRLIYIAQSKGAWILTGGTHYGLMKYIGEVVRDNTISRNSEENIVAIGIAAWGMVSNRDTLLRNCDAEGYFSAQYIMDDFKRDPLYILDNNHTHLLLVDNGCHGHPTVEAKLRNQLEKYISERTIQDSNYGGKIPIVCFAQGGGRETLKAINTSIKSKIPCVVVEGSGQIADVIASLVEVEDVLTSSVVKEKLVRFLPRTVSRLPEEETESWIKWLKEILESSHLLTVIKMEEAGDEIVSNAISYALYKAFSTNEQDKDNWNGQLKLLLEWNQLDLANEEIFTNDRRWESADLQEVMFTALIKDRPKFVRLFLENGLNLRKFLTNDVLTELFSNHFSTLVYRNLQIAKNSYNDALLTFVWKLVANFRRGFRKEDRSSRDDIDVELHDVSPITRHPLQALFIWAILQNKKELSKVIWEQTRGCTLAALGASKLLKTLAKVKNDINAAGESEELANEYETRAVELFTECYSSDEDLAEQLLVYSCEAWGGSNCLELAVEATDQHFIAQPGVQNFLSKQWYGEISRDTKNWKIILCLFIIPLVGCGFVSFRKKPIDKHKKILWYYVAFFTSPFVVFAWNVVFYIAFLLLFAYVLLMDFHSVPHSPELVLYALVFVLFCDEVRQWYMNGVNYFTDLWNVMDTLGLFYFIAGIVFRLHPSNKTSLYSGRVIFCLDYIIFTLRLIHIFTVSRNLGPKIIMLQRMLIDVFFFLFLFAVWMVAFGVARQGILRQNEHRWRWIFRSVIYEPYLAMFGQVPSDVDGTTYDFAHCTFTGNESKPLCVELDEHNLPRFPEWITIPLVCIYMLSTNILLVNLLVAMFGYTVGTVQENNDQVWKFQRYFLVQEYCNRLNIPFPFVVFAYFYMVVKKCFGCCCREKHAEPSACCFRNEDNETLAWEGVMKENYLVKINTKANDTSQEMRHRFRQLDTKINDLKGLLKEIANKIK
- measurement.protocol: In Vitro Canine TRPM8 Functional Assay (Ca2+ fluorescence, icilin activation)
- Format: cell-based
- study.conditions: 0.5 μM compound; canine TRPM8 HEK293; icilin; 0.5 µM
recorded.endpoint: % Inh @ 0.5 μM (%)

molecule	% Inh @ 0.5 μM [%]
O=C(C(Nc1ccccc1F)c1ccc(C(F)(F)F)cc1)N1CCCC1c1ccccc1F (mixture of isomers) [Cpd 131]	103
O=C(C(Nc1ccccc1)c1ccc(C(F)(F)F)cc1)N1CCCC1c1ccccc1Cl (single isomer, unassigned) [Cpd 60]	103.24
O=C(C(Nc1ccccc1)c1ccc(C(F)(F)F)cc1)N1CCCC1c1ccccc1Cl (single isomer, unassigned) [Cpd 23]	103.39
O=C(C(Nc1ccccc1)c1ccc(C(F)(F)F)cc1)N1CCCC1c1ccccc1F (single isomer, unassigned) [Cpd 47]	99.791
O=C(C(Nc1ccc(F)cc1)c1ccc(C(F)(F)F)cc1)N1CCCC1c1ccccc1 (single isomer, unassigned)	97

a: O=C(C(Nc1ccccc1)c1ccc(C(F)(F)F)cc1)N1CCCC1c1ccccc1C(F)(F)F (single isomer, unassigned)
b: O=C(C(Nc1ccccc1)c1ccc(C(F)(F)F)cc1)N1CCCC1c1cc2ccccc2[nH]1 (stereo not shown)
-- ask Which is greater in % Inh @ 0.5 μM, the first item a or the second item b ? Indicate your choice by writing its label.
-- reply a

###

- system: canine TRPM8 (Canis lupus familiaris, UniProt Q1A7N1)
- Construct: expressed in transfected cells
- measurement.protocol: In Vitro Canine TRPM8 Functional Assay (Ca2+ fluorescence, icilin activation)
- Assay type: cell-based
- study.conditions: 0.2 μM compound; canine TRPM8 HEK293; icilin; 0.2 µM
recorded.endpoint: % Inh @ 0.2 μM (%)

compound	system	% Inh @ 0.2 μM, %
O=C(C(Nc1c(F)cccc1F)c1ccc(Br)cc1)N1CCCC1c1ccccc1F (single isomer, unassigned)	canine TRPM8 (Canis lupus familiaris, UniProt Q1A7N1)	100
O=C(C(Nc1ccccc1F)c1ccc2ncccc2c1)N1CCCC1c1ccccc1F (single isomer, unassigned)	canine TRPM8 (Canis lupus familiaris, UniProt Q1A7N1)	90

A: O=C(C(Nc1ccccc1F)c1ccc(C(F)(F)F)cc1)N1CCCC1c1cccc(F)c1 (single isomer, unassigned)
B: COC(=O)C1CCC(c2ccccc2)N1C(=O)C(Nc1ccccc1F)c1ccc(Br)cc1 (stereo not shown) [Cpd 196]
-- ask Which is greater in % Inh @ 0.2 μM, the first item A or the second item B ? Indicate your choice by writing its label.
-- reply A

###

- system: canine TRPM8 (Canis lupus familiaris, UniProt Q1A7N1)
- Construct: expressed in transfected cells
- measurement.protocol: In Vitro Canine TRPM8 Functional Assay (Ca2+ fluorescence, icilin activation)
- Assay type: cell-based
- study.conditions: HEK293 cells stably expressing canine TRPM8; icilin activation; Ca2+ fluorescence
recorded.endpoint: IC50 (nM)

I: COC(=O)C1CCC(c2ccccc2)N1C(=O)C(Nc1ccccc1F)c1ccc(Br)cc1 (single isomer, unassigned) [Cpd 209]
II: O=C(C(Nc1ccccc1F)c1cc2ccccc2s1)N1CCCC1c1ccccn1 (stereo not shown) [Cpd 321]
-- ask Which is greater in IC50, the first item I or the second item II ? Indicate your choice by writing its label.
-- reply I
(I: 99 nM, II: 8 nM)

P: O=C([C@H](Nc1c(F)cccc1F)c1ccc(Br)cc1)N1[C@H](CO)CC[C@@H]1c1ccccc1 (single isomer, unassigned)
Q: COc1ccccc1C1CCCN1C(=O)C(Nc1ccccc1)c1cccc(C(F)(F)F)c1 (stereo not shown)
-- ask Which is greater in IC50, the first item P or the second item Q ? Indicate your choice by writing its label.
-- reply P

I: O=C(C(Nc1ccccc1F)c1cc2cccnc2s1)N1CCCC1c1ccccc1F (racemic) [Cpd 320]
II: O=C(C(Nc1ccccc1F)c1ccc(C(F)(F)F)cc1)N1CCCC1c1ccccc1 (single isomer, unassigned) [Cpd 191]
-- ask Parameter metric = IC50. Return the lower-valued option from I and II . Indicate your choice by writing its label.
-- reply II

a: O=C(C(Nc1ccc(F)cc1F)c1ccc(Cl)cc1)N1CCCC1c1ccccc1F (stereo not shown)
b: COc1ccc(C(Nc2sccc2C#N)C(=O)N2CCCC2c2ccccc2Cl)cc1 (stereo not shown)
-- ask Which is greater in IC50, the first item a or the second item b ? Indicate your choice by writing its label.
-- reply b
(b: 432 nM, a: 101 nM)

1: COc1ccc(C(Nc2ccccc2)C(=O)N2CCCC2c2ccccc2Cl)cc1 (stereo not shown)
2: CC(C)(C)c1ccc(C(Nc2ccccc2)C(=O)N2CCCCCC2c2ccccc2)cc1 (stereo not shown)
-- ask Parameter metric = IC50. Return the lower-valued option from 1 and 2 . Indicate your choice by writing its label.
-- reply 1
(1: 28 nM, 2: 349 nM)

A: O=C(C(Nc1c(F)cccc1F)c1ccc(Cl)cc1)N1CCCC1c1ccccc1 (stereo not shown)
B: COC(=O)c1cccc(C2CCCN2C(=O)C(Nc2ccccc2F)c2ccc(C(F)(F)F)cc2)c1 (mixture of isomers)
C: Cc1nc2ccc(C(Nc3ccccc3F)C(=O)N3CCCC3c3ccccc3F)cc2s1 (single isomer, unassigned) [Cpd 340]
-- ask Hello, I need these entries ordered by IC50, highest reading first. Thanks! To answer, arrange all of the labels according to the requested order.
-- reply B, A, C

a: O=C(C(Nc1c(F)cccc1F)c1ccc(Cl)cc1)N1CCCC1c1ccccc1F (stereo not shown)
b: O=C(C(Nc1ccccc1)c1ccc(C(F)(F)F)cc1)N1CCc2ccccc21 (stereo not shown)
-- ask Parameter metric = IC50. Return the lower-valued option from a and b . Indicate your choice by writing its label.
-- reply a
(a: 11 nM, b: 202 nM)

###

- system: canine TRPM8 (Canis lupus familiaris, UniProt Q1A7N1)
- Construct: expressed in transfected cells
- measurement.protocol: In Vitro Canine TRPM8 Functional Assay (Ca2+ fluorescence, icilin activation)
- Format: cell-based
- study.conditions: 0.5 μM compound; canine TRPM8 HEK293; icilin
recorded.endpoint: % Inh @ 0.5 μM (%)

molecule	recorded.endpoint	unit.descriptor	result
COc1ccc(C(Nc2ccccc2)C(=O)N2Cc3ccccc3C2)cc1 (racemic)	% Inh @ 0.5 μM	%	33

A: Cc1cccc(C)c1NC(C(=O)N1CCc2ccccc21)c1ccc(C(F)(F)F)cc1 (racemic)
B: O=C(C(Nc1ccccc1)c1ccccc1Cl)N1CCCC1c1ccccc1Cl (mixture of isomers)
C: O=C(C(Nc1ccccc1Cl)c1ccc(C(F)(F)F)cc1)N1CCc2ccccc21 (racemic)
-- ask Hello, I need these entries ordered by % Inh @ 0.5 μM, highest reading first. Thanks! To answer, arrange all of the labels according to the requested order.
-- reply A, C, B

P: O=C(C(CNc1ccccc1)c1ccc(C(F)(F)F)cc1)N1CCc2ccccc21 (racemic)
Q: O=C(C(Nc1cccc(Cl)c1)c1ccc(C(F)(F)F)cc1)N1CCc2ccccc21 (racemic)
-- ask Which is greater in % Inh @ 0.5 μM, the first item P or the second item Q ? Indicate your choice by writing its label.
-- reply P
(P: 90.495%, Q: 63.009%)

a: O=C(C(NC1CCCCC1)c1ccc(C(F)(F)F)cc1)N1CCc2ccccc21 (racemic)
b: CN1CCN(NC(=O)[C@H](Nc2ccccc2)c2ccc(C(C)(C)C)cc2)[C@H](c2ccccc2)C1 (relative stereo)
c: O=C(C(Nc1ccccc1)c1ccc(C(F)(F)F)cc1)N1CCCC1c1ccccc1Cl (single isomer, unassigned)
-- ask In this exercise, place the 3 molecules in ascending sequence of their recorded % Inh @ 0.5 μM. To answer, arrange all of the labels according to the requested order.
-- reply c, b, a

###

- system: canine TRPM8 (Canis lupus familiaris)
- measurement.protocol: In Vitro Canine TRPM8 Functional Assay (Ca2+ fluorescence, icilin activation)
- study.conditions: HEK293 cells stably expressing canine TRPM8; icilin activation; Ca2+ fluorescence
recorded.endpoint: IC50 (nM)

Consider the worked cases shown below.
compound	system	result
COc1ccc(C(Nc2ccccc2)C(=O)N2CCCC2c2ccccc2)cc1 (stereo not shown) [Cpd 72]	canine TRPM8 (Canis lupus familiaris)	46
O=C(C(Cc1c(F)cccc1F)c1ccc(C(F)(F)F)cc1)N1CCCC1c1ccccc1F (stereo not shown) [Cpd 244]	canine TRPM8 (Canis lupus familiaris)	16.7
O=C(C(Nc1cccc(F)c1F)c1ccc(Cl)cc1)N1CCCC1c1ccccc1Cl (single isomer, unassigned) [Cpd 166]	canine TRPM8 (Canis lupus familiaris)	61

a: COC(=O)c1ccc(C2CCCN2C(=O)C(Nc2ccccc2F)c2cc3ccccc3s2)cc1 (stereo not shown) [Cpd 325]
b: O=C(C(Nc1ccccc1F)c1cc2ccccc2s1)N1CCCC1c1ccccn1 (single isomer, unassigned) [Cpd 331]
-- ask Parameter metric = IC50. Return the lower-valued option from a and b . Indicate your choice by writing its label.
-- reply b
(b: 13 nM, a: 62 nM)
